Molecular target: UniProtKB P21980
Sequence (P21980 whole entry): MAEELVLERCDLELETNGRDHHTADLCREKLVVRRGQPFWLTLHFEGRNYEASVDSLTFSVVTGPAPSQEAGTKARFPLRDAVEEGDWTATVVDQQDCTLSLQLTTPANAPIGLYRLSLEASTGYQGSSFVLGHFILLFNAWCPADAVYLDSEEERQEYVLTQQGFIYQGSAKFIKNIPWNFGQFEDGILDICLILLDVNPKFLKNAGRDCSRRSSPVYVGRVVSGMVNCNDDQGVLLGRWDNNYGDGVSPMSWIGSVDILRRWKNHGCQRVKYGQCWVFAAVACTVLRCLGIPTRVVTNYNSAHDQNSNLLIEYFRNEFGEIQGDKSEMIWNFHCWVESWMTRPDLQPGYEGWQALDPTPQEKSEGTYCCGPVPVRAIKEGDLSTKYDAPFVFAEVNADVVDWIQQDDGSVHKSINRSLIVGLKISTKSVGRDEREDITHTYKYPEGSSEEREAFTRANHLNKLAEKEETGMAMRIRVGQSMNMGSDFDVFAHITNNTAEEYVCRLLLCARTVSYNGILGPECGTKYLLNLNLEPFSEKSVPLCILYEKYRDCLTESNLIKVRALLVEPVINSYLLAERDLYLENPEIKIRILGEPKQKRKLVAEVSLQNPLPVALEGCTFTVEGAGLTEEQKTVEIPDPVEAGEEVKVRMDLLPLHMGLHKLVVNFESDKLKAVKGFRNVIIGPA
Assay: Inhibition of human TGase 2 using R-I-Cad/DMC as substrate preincubated for 5 mins followed by substrate addition measured at 30 secs interval over 900 secs by fluorescence anisotropy assay
readoutLabel: pIC50
pIC50 (log units): -log10 of the concentration in mol/L.

[
  {
    "itemSmiles": "C=CC(=O)NCCCC[C@H](NC(=O)Cc1ccccc1)C(=O)N1CCN(c2cccc(I)n2)CC1",
    "pIC50": 6.85
  }
]

Task item: If you can, please state the reported pIC50 value of C=CC(=O)NCCCC[C@H](NC(=O)Cc1ccccc1)C(=O)N1CCN(c2cccc(OCCF)n2)CC1 .
Reply: 6.41

Task item: Another molecule to check: C=CC(=O)NCCCC[C@H](NC(=O)Cc1ccccc1)C(=O)N1CCN(c2cccc(-c3ccccc3)n2)CC1
Reply: 6.70

Task item: Another molecule to check: C=CC(=O)NCCCC[C@H](NC(=O)Cc1ccccc1)C(=O)N1CCN(c2cccc(F)n2)CC1
Reply: 6.96

Task item: Another molecule to check: C=CC(=O)NCCCC[C@H](NC(=O)Cc1ccccc1)C(=O)N1CCN(c2cccc(Cl)n2)CC1
Reply: 6.74

###

List of Papp values.
test: in vitro; settings: PAMPA
Description: Effective permeability of the compound by PAMPA assay
Numbers only; they are read as ×10⁻⁶ cm/s.

Here are 3 molecules together with their reported answers.
[
  {
    "itemSmiles": "C=CC(=O)NCCCC[C@H](NC(=O)Cc1ccc(F)cc1)C(=O)N1CCN(c2ccc([N+](=O)[O-])nc2)CC1",
    "Papp / ×10⁻⁶ cm/s": 1.97
  },
  {
    "itemSmiles": "C=CC(=O)NCCCC[C@H](NC(=O)Cc1ccccc1)C(=O)N1CCN(c2cccc(F)n2)CC1",
    "Papp / ×10⁻⁶ cm/s": 13.3
  },
  {
    "itemSmiles": "C=CC(=O)NCCCC[C@H](NC(=O)Cc1ccccc1)C(=O)N1CCN(c2ccc(F)nc2)CC1",
    "Papp / ×10⁻⁶ cm/s": 3.54
  }
]

Turning now to a further molecule:
Task item: If you can, please state the reported Papp value of C=CC(=O)NCCCC[C@H](NC(=O)Cc1ccccc1F)C(=O)N1CCN(c2cccc([N+](=O)[O-])n2)CC1 .
Reply: 8.74

###

List of remaining at 1 h, 100 µM values.
assay: Metabolic stability in mouse liver microsomes assessed as parent compound remaining at 100 uM measured after 60 mins by HPLC-UV analysis; type: ADME, microsome; settings: liver microsomes, read-out: Stability
Numbers only; they are read as %.

[
  {
    "itemSmiles": "C=CC(=O)NCCCC[C@H](NC(=O)Cc1ccccc1)C(=O)N1CCN(c2cccc(C)n2)CC1",
    "assayResult": 62
  }
]

Turning now to a further compound:
Task item: If you can, please state the reported remaining at 1 h, 100 µM value of C=CC(=O)NCCCC[C@H](NC(=O)Cc1ccccc1)C(=O)N1CCN(C(=O)c2ccc(F)cc2)CC1 .
Reply: 85

###

test: Inhibition of guinea pig TGase 2 using F-Cad/DMC as substrate preincubated for 30 mins followed by substrate addition measured at 30 secs interval over 900 secs by fluorescence anisotropy assay; parameters: species or system Cavia porcellus
readoutLabel: pIC50
pIC50 (log units): -log10 of the concentration in mol/L.

Here are 3 compounds together with their reported answers.
[
  {
    "itemSmiles": "C=CC(=O)NCCCC[C@H](NC(=O)Cc1ccc(I)cc1)C(=O)N1CCN(c2cccc(C)n2)CC1",
    "pIC50": 6.80
  },
  {
    "itemSmiles": "C=CC(=O)NCCCC[C@H](NC(=O)Cc1ccccc1)C(=O)N1CCN(c2ccc([N+](=O)[O-])nc2)CC1",
    "pIC50": 6.82
  },
  {
    "itemSmiles": "C=CC(=O)NCCCC[C@H](NC(=O)Cc1ccccc1)C(=O)N1CCN(c2cccc([N+](=O)[O-])n2)CC1",
    "pIC50": 6.92
  }
]

Task item: If you can, please state the reported pIC50 value of C=CC(=O)NCCCC[C@H](NC(=O)Cc1ccccc1)C(=O)N1CCN(c2cccc(Br)n2)CC1 .
Reply: 6.70

###

assay: in vitro; details: PAMPA
readoutLabel: Papp (×10⁻⁶ cm/s)
Numbers only; they are read as ×10⁻⁶ cm/s.

Here are 3 compounds together with their reported answers.
[
  {
    "compound": "C=CC(=O)NCCCC[C@H](NC(=O)Cc1ccccc1)C(=O)N1CCN(C(=O)c2ccc(F)cc2)CC1",
    "Papp [×10⁻⁶ cm/s]": 3.05
  },
  {
    "compound": "C=CC(=O)NCCCC[C@H](NC(=O)Cc1ccccc1)C(=O)N1CCN(S(=O)(=O)c2cccc3c(N(C)C)cccc23)CC1",
    "Papp [×10⁻⁶ cm/s]": 7.68
  },
  {
    "compound": "C=CC(=O)NCCCC[C@H](NC(=O)Cc1ccc(F)cc1)C(=O)N1CCN(c2cccc(C)n2)CC1",
    "Papp [×10⁻⁶ cm/s]": 11.4
  }
]

Task item: If you can, please state the reported Papp value of C=CC(=O)NCCCC[C@H](NC(=O)Cc1ccccc1)C(=O)N1CCN(c2cccc([N+](=O)[O-])n2)CC1 .
Reply: 9.16

Task item: Another compound to check: NS(=O)(=O)c1cc2c(cc1Cl)NCNS2(=O)=O [HYDROCHLOROTHIAZIDE]
Reply: 0.06

Task item: Another compound to check: C=CC(=O)NCCCC[C@H](NC(=O)Cc1ccccc1)C(=O)N1CCN(c2ccncc2)CC1
Reply: 0.51

Task item: Another compound to check: C=CC(=O)NCCCC[C@H](NC(=O)Cc1cccc(F)c1)C(=O)N1CCN(c2cccc(C)n2)CC1
Reply: 12.5

Task item: Another compound to check: C=CC(=O)NCCCC[C@H](NC(=O)Cc1ccccc1F)C(=O)N1CCN(c2cccc(C)n2)CC1
Reply: 11.4

Task item: Another compound to check: C=CC(=O)NCCCC[C@H](NC(=O)Nc1ccc(F)cc1)C(=O)N1CCN(c2cccc(C)n2)CC1
Reply: 12.5

Task item: Another compound to check: C=CC(=O)NCCCC[C@H](NC(=O)Cc1ccccc1)C(=O)N1CCN(c2cccc(-c3ccccc3)n2)CC1
Reply: 21.9

Task item: Another compound to check: C=CC(=O)NCCCC[C@H](NC(=O)Cc1ccccc1)C(=O)N1CCN(c2ccc(C(F)(F)F)nc2)CC1
Reply: 8.98

Task item: Another compound to check: C=CC(=O)NCCCC[C@H](NC(=O)Cc1ccccc1)C(=O)N1CCN(Cc2ccc(F)cc2)CC1
Reply: 10.3

Task item: Another compound to check: C=CC(=O)NCCCC[C@H](NC(=O)Cc1ccccc1)C(=O)N1CCN(c2cccc(C(C)(C)C)n2)CC1
Reply: 21.9

Task item: Another compound to check: C=CC(=O)NCCCC[C@H](NC(=O)c1ccc(F)cc1)C(=O)N1CCN(c2ccc([N+](=O)[O-])nc2)CC1
Reply: 4.08

###

Molecular target: Protein-glutamine gamma-glutamyltransferase (Homo sapiens)
Sequence (P21980 whole entry): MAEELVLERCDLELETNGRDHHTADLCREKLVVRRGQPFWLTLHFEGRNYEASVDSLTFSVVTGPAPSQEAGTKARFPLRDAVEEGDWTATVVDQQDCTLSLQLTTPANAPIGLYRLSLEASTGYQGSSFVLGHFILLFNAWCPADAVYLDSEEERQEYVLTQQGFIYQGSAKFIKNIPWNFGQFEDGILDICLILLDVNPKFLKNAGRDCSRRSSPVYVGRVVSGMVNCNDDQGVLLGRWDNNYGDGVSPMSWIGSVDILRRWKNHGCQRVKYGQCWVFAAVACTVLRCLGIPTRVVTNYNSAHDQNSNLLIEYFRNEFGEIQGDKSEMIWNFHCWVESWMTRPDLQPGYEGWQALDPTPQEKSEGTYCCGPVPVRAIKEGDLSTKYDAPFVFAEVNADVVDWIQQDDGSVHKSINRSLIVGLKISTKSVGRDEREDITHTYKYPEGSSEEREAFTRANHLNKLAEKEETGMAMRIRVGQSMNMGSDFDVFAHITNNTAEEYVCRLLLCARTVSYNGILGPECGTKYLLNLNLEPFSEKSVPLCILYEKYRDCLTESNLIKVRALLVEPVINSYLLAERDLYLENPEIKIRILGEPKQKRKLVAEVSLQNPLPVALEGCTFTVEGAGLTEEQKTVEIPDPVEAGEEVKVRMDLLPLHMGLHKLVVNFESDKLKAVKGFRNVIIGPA
Test: Inhibition of TGase 2 in human A375 cells using R-I-Cad/DMC as substrate preincubated for 5 mins followed by substrate addition measured at 30 secs interval over 900 secs by fluorescence anisotropy assay
Type: cell-based
readoutLabel: IC50
I'd appreciate it if you included the unit after the number.

Task item: Value wanted: IC50 (Protein-glutamine gamma-glutamyltransferase (Homo sapiens)) of entry C=CC(=O)NCCCC[C@H](NC(=O)Cc1ccccc1)C(=O)N1CCN(c2cccc(F)n2)CC1
Reply: 1100 nM

Task item: Another molecule to check: C=CC(=O)NCCCC[C@H](NC(=O)Cc1ccccc1)C(=O)N1CCN(c2cccc(C)n2)CC1
Reply: 790 nM

Task item: Another molecule to check: C=CC(=O)NCCCC[C@H](NC(=O)Cc1ccccc1)C(=O)N1CCN(c2cccc([N+](=O)[O-])n2)CC1
Reply: 400 nM
